B1: ZBTB22 (parent)
chain: HTGLKPYECGVCAKKFMWRDSFMR

Variants of: B1
Procedure text: protein stability index of a GFP-peptide fusion (GPS, HEK-293T) (PSI 1-6); higher = more stable;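 also: lentivirally expressed fusions sorted by FACS into six bins by GFP to DsRed ratio, PSI derived from sequencing read proportions per bin multiplied by bin number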
Condition context: c terminus: a fixed tail appended
Catalogue of protein stability index values
Provide a numeric answer; units are not to be included.

>>> print(df.to_string())
           residue_sequence   val
0  HTGLSPYECGVCAKKFMWRDSFMR  1.96

Now for another entry.
Prompt: Supply protein stability index value. Item: "HTGLKPYCCGVCAKKFMWRDSFMR"
Completion: 1.96

Every entry's value here was drawn from the supplement of paper PMC10567573.
